Test system: Escherichia coli TOP10
measurement.notes: shrunken log2 fold change of peptide-encoding DNA abundance (4.5 h post-induction vs induction); higher = less antimicrobial activity (less host growth inhibition)
measurement.setup: time post-induction: 4.5 h; library: site-saturation at positions 5, 18, 19, 20
Binning scheme for shrunken log2 fold change: lower (below -0.1), middle (-0.1 to below 0.2), upper (0.2 or more)

[[record]]
chain_sequence = "RRIRTRPPRLPRPRPRPTYMPRP"
tested_target = "Escherichia coli TOP10"
group_label = "lower"

[[record]]
chain_sequence = "RRIRKRPPRLPRPRPRPKHMPRP"
tested_target = "Escherichia coli TOP10"
group_label = "middle"

[[record]]
chain_sequence = "RRIRWRPPRLPRPRPRPEAPPRP"
tested_target = "Escherichia coli TOP10"
group_label = "upper"

[[record]]
chain_sequence = "RRIRFRPPRLPRPRPRPFRVPRP"
tested_target = "Escherichia coli TOP10"
group_label = "lower"

[[record]]
chain_sequence = "RRIRGRPPRLPRPRPRPWNYPRP"
tested_target = "Escherichia coli TOP10"
group_label = "middle"

[[record]]
chain_sequence = "RRIRPRPPRLPRPRPRPWGYPRP"
tested_target = "Escherichia coli TOP10"
group_label = "middle"

[[record]]
chain_sequence = "RRIRRRPPRLPRPRPRPWSNPRP"
tested_target = "Escherichia coli TOP10"
group_label = "lower"

[[record]]
chain_sequence = "RRIRVRPPRLPRPRPRPCAVPRP"
tested_target = "Escherichia coli TOP10"
group_label = "upper"

[[record]]
chain_sequence = "RRIRWRPPRLPRPRPRPTFDPRP"
tested_target = "Escherichia coli TOP10"
group_label = "upper"

[[record]]
chain_sequence = "RRIRARPPRLPRPRPRPKCQPRP"
tested_target = "Escherichia coli TOP10"
group_label = "upper"

[[record]]
chain_sequence = "RRIRIRPPRLPRPRPRPSTKPRP"
tested_target = "Escherichia coli TOP10"
group_label = "lower"

[[record]]
chain_sequence = "RRIRARPPRLPRPRPRPNFGPRP"
tested_target = "Escherichia coli TOP10"
group_label = "upper"


---

Test system: Escherichia coli TOP10;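 also: peptides expressed intracellularly from a pBAD plasmid library in pooled LB shake-flask culture, induced with 0.3% L-arabinose, DNA abundance read by NGS, three biological replicates, DESeq2 with apeglm shrinkage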
measurement.notes: shrunken log2 fold change of peptide-encoding DNA abundance (4.5 h post-induction vs induction); higher = less antimicrobial activity (less host growth inhibition)
measurement.setup: time post-induction: 4.5 h; library: site-saturation at positions 5, 18, 19, 20
# key: entry, value: shrunken log2 fold change
measure.name: shrunken log2 fold change

[[record]]
chain_sequence = "RRIRGRPPRLPRPRPRPKCQPRP"
observed = 0.581

[[record]]
chain_sequence = "RRIRYRPPRLPRPRPRPSDKPRP"
observed = -0.194

[[record]]
chain_sequence = "RRIRDRPPRLPRPRPRPQATPRP"
observed = 0.403

[[record]]
chain_sequence = "RRIRFRPPRLPRPRPRPYYGPRP"
observed = -0.0202

[[record]]
chain_sequence = "RRIRRRPPRLPRPRPRPPMKPRP"
observed = 0.522

[[record]]
chain_sequence = "RRIRCRPPRLPRPRPRPDYKPRP"
observed = -0.375

[[record]]
chain_sequence = "RRIRKRPPRLPRPRPRPFQFPRP"
observed = -0.018

[[record]]
chain_sequence = "RRIRWRPPRLPRPRPRPHYIPRP"
observed = -0.468

[[record]]
chain_sequence = "RRIRCRPPRLPRPRPRPSGKPRP"
observed = -0.327

[[record]]
chain_sequence = "RRIRYRPPRLPRPRPRPQTMPRP"
observed = -0.23

[[record]]
chain_sequence = "RRIRGRPPRLPRPRPRPATDPRP"
observed = 0.531

[[record]]
chain_sequence = "RRIRYRPPRLPRPRPRPIAVPRP"
observed = -0.321

[[record]]
chain_sequence = "RRIRFRPPRLPRPRPRPKDGPRP"
observed = -0.184

[[record]]
chain_sequence = "RRIRWRPPRLPRPRPRPHPYPRP"
observed = -0.195

[[record]]
chain_sequence = "RRIRARPPRLPRPRPRPDQMPRP"
observed = 0.386

[[record]]
chain_sequence = "RRIRRRPPRLPRPRPRPRVMPRP"
observed = 0.413

[[record]]
chain_sequence = "RRIRKRPPRLPRPRPRPGTDPRP"
observed = -0.165

[[record]]
chain_sequence = "RRIRARPPRLPRPRPRPVHYPRP"
observed = -0.198

[[record]]
chain_sequence = "RRIRQRPPRLPRPRPRPWGMPRP"
observed = -0.0405

[[record]]
chain_sequence = "RRIRTRPPRLPRPRPRPSNCPRP"
observed = -0.414

[[record]]
chain_sequence = "RRIRDRPPRLPRPRPRPIIHPRP"
observed = -0.483

[[record]]
chain_sequence = "RRIRMRPPRLPRPRPRPQSVPRP"
observed = 0.0409

[[record]]
chain_sequence = "RRIRNRPPRLPRPRPRPIAEPRP"
observed = 0.196

[[record]]
chain_sequence = "RRIRLRPPRLPRPRPRPDGLPRP"
observed = -0.115

[[record]]
chain_sequence = "RRIRDRPPRLPRPRPRPDSPPRP"
observed = -0.248

[[record]]
chain_sequence = "RRIRHRPPRLPRPRPRPCIPPRP"
observed = -0.809

[[record]]
chain_sequence = "RRIRVRPPRLPRPRPRPRLRPRP"
observed = 0.311

[[record]]
chain_sequence = "RRIRLRPPRLPRPRPRPITFPRP"
observed = 0.0415

[[record]]
chain_sequence = "RRIRDRPPRLPRPRPRPTRLPRP"
observed = 0.491

[[record]]
chain_sequence = "RRIRVRPPRLPRPRPRPIGPPRP"
observed = -0.0936

[[record]]
chain_sequence = "RRIRKRPPRLPRPRPRPGHAPRP"
observed = 0.667

[[record]]
chain_sequence = "RRIRNRPPRLPRPRPRPFHAPRP"
observed = -0.0245

[[record]]
chain_sequence = "RRIRWRPPRLPRPRPRPFKIPRP"
observed = -0.358

[[record]]
chain_sequence = "RRIRWRPPRLPRPRPRPQWEPRP"
observed = -0.0152

[[record]]
chain_sequence = "RRIRYRPPRLPRPRPRPHSIPRP"
observed = -0.311

[[record]]
chain_sequence = "RRIRQRPPRLPRPRPRPPPVPRP"
observed = 0.607

[[record]]
chain_sequence = "RRIRYRPPRLPRPRPRPVAMPRP"
observed = -0.464

[[record]]
chain_sequence = "RRIRHRPPRLPRPRPRPYQPPRP"
observed = -0.216

[[record]]
chain_sequence = "RRIRRRPPRLPRPRPRPEEAPRP"
observed = 1.51

[[record]]
chain_sequence = "RRIRVRPPRLPRPRPRPVTIPRP"
observed = -0.232

[[record]]
chain_sequence = "RRIRYRPPRLPRPRPRPEPAPRP"
observed = 0.168

